The following compounds are shown together with reported pIC50 values.
System: MCF-7 human breast cancer cell lines
Test: MTT proliferation (cytotoxicity) assay on MCF-7 cells
Format: cell-based
Conditions: Homo sapiens, MCF7; 24 h incubation, MTT
pIC50: −log10 of the molar value.
measure: pIC50

[[record]]
compound = "CCCCC(=O)Nc1ccccc1C/C=C/c1ccc(OC)cc1 [Compound 7d]"
measure = "pIC50"
limit_operator = "="
readout_value = 4.23

[[record]]
compound = "CCCCCC(=O)Nc1ccccc1C/C=C/c1ccc(OC)cc1 [Compound 7e]"
measure = "pIC50"
limit_operator = "<"
readout_value = 4.00

[[record]]
compound = "CCCCCC(=O)Nc1ccccc1/C=C/Cc1ccc(OC)cc1 [Compound 6e]"
measure = "pIC50"
limit_operator = "<"
readout_value = 4.00

[[record]]
compound = "COc1ccc(C/C=C/c2ccccc2NC(=O)c2ccccc2C)cc1 [Compound 6i]"
measure = "pIC50"
limit_operator = "<"
readout_value = 4.00

[[record]]
compound = "CCCCC(=O)Nc1ccccc1/C=C/Cc1ccc(OC)cc1 [Compound 6d]"
measure = "pIC50"
limit_operator = "="
readout_value = 4.03


* * *

The following compounds are shown together with reported SI (selectivity index) MDA-MB-231 values.
System: MDA-MB-231 human breast cancer cell lines
Assay: MTT proliferation (cytotoxicity) assay on MDA-MB-231 cells
Format: cell-based
Details: 48 h; IC50 normal cells (MCF-10A) divided by IC50 MDA-MB-231
measure: SI (selectivity index) MDA-MB-231

[[record]]
smiles_data = "CCCCCC(=O)Nc1ccccc1/C=C/Cc1ccc(OC)cc1"
measure = "SI (selectivity index) MDA-MB-231"
readout_value = "< 0.90"

[[record]]
smiles_data = "CCCCC(=O)Nc1ccccc1/C=C/Cc1ccc(OC)cc1"
measure = "SI (selectivity index) MDA-MB-231"
readout_value = "< 0.94"

[[record]]
smiles_data = "CCCCCC(=O)Nc1ccccc1C/C=C/c1ccc(OC)cc1"
measure = "SI (selectivity index) MDA-MB-231"
readout_value = "< 0.70"

[[record]]
smiles_data = "CCCCC(=O)Nc1ccccc1C/C=C/c1ccc(OC)cc1"
measure = "SI (selectivity index) MDA-MB-231"
readout_value = "< 0.75"


* * *

System: MCF-10A human normal breast cell lines
Assay: MTT proliferation (cytotoxicity) assay on MCF-10A normal cells
Type: cell-based
Settings: 48 h incubation
pIC50: −log10 of the molar value.
The following compounds are shown together with reported pIC50 values.
measure: pIC50

[[record]]
smiles_data = "CCCCCC(=O)Nc1ccccc1C/C=C/c1ccc(OC)cc1"
target = "MCF-10A human normal breast cell lines"
limit_operator = "="
readout_value = 4.15

[[record]]
smiles_data = "CCCCC(=O)Nc1ccccc1C/C=C/c1ccc(OC)cc1"
target = "MCF-10A human normal breast cell lines"
limit_operator = "="
readout_value = 4.12

[[record]]
smiles_data = "COc1ccc(C/C=C/c2ccccc2NC(=O)c2ccccc2C)cc1"
target = "MCF-10A human normal breast cell lines"
limit_operator = "<"
readout_value = 4.00

[[record]]
smiles_data = "CCCCCC(=O)Nc1ccccc1/C=C/Cc1ccc(OC)cc1"
target = "MCF-10A human normal breast cell lines"
limit_operator = "="
readout_value = 4.05

[[record]]
smiles_data = "CCCCC(=O)Nc1ccccc1/C=C/Cc1ccc(OC)cc1"
target = "MCF-10A human normal breast cell lines"
limit_operator = "="
readout_value = 4.03

